Provide the reported log10 of koff of each item.
assayed.system: T1, human LAP-TGFB1 Fc fusion (human)
T1 construct: also called human LAP-TGFβ1-Fc; human LAP-TGFβ-Fc isoform 1
T1 sequence (chain, as listed by the source limits assumed): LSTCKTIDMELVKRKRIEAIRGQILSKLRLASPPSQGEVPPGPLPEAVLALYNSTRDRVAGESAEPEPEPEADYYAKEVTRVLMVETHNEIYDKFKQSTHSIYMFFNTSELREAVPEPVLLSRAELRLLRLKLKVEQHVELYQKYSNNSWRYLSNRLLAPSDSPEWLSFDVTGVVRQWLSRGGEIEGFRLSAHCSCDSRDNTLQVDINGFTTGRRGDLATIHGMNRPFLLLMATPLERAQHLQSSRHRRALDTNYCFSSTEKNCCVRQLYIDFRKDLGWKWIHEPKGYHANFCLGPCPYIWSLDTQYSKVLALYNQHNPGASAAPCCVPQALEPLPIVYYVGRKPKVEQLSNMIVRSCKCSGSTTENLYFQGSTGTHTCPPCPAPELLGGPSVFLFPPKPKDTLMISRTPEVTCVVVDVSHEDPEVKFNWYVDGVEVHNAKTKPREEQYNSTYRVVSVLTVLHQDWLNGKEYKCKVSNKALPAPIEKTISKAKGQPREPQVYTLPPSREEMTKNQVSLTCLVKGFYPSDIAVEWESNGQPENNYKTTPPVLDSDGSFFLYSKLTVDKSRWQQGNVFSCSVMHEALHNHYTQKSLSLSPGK
experiment.summary: SPR, antigen-Fc captured, Fab analyte
# log10 transformed; quantity=koff; unit=s⁻¹

Recall and state the measured log10 of koff for 62BJN (Fab, V domains shown, also called VH W33D Q54Y S55G W99Y Y101H / VL T30Y (62BJN)) VH: EVQLVQSGAEVKKPGASVKVSCKASGYTFTSYDMHWVRQAPGQGLEWMGRIDPYGGGIKYAQKFQGRATLTVDTSTSTAYMELSRLRSDDTAVYYCARYDHGGYFDVWGQGTLVTVSS VL: DIQMTQSPSSLSASVGDRVTITCRASQDIYNYLNWYQQKPGKAVKLLIYYTSRLHSGVPSRFSGSGSGTDYTLTISSLQPEDFATYFCQQGDTLPWTFGQGTKLEIKR .
-1.49

Name the recorded log10 of koff of the binder listed here: 71BJN (Fab, V domains shown, also called VH W33D S55T G57D Y104Q / VL T30Y R53G (71BJN)) VH: EVQLVQSGAEVKKPGASVKVSCKASGYTFTSYDMHWVRQAPGQGLEWMGRIDPQTGDIKYAQKFQGRATLTVDTSTSTAYMELSRLRSDDTAVYYCARWDYGGQFDVWGQGTLVTVSS VL: DIQMTQSPSSLSASVGDRVTITCRASQDIYNYLNWYQQKPGKAVKLLIYYTSGLHSGVPSRFSGSGSGTDYTLTISSLQPEDFATYFCQQGDTLPWTFGQGTKLEIKR
-4.17

Report measured log10 of koff; entry is 61BJN (Fab, V domains shown, also called VH S31D W33D G57D I58H K59D W99Y Y101H / VL T30Y (61BJN)) VH: EVQLVQSGAEVKKPGASVKVSCKASGYTFTDYDMHWVRQAPGQGLEWMGRIDPQSGDHDYAQKFQGRATLTVDTSTSTAYMELSRLRSDDTAVYYCARYDHGGYFDVWGQGTLVTVSS VL: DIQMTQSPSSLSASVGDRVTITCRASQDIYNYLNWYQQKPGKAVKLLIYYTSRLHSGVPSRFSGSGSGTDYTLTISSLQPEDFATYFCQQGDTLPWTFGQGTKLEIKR
-0.55

Return log10 of koff for the following binder: 67BJN (Fab, V domains shown, also called VH W33D / VL T30Y R53V (67BJN)) VH: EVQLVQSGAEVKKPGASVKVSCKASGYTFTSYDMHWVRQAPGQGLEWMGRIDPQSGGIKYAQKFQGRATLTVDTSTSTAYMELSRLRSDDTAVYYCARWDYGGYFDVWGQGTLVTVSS VL: DIQMTQSPSSLSASVGDRVTITCRASQDIYNYLNWYQQKPGKAVKLLIYYTSVLHSGVPSRFSGSGSGTDYTLTISSLQPEDFATYFCQQGDTLPWTFGQGTKLEIKR
-3.12

Give the reported log10 of koff for this binder. 82BJN (Fab, V domains shown, also called VH W33Y H35N I58V D100H Y104Q / VL T30Y R53G (82BJN)) VH: EVQLVQSGAEVKKPGASVKVSCKASGYTFTSYYMNWVRQAPGQGLEWMGRIDPQSGGVKYAQKFQGRATLTVDTSTSTAYMELSRLRSDDTAVYYCARWHYGGQFDVWGQGTLVTVSS VL: DIQMTQSPSSLSASVGDRVTITCRASQDIYNYLNWYQQKPGKAVKLLIYYTSGLHSGVPSRFSGSGSGTDYTLTISSLQPEDFATYFCQQGDTLPWTFGQGTKLEIKR
-4.59

Specify reported log10 of koff for the binder shown: 60BJN (Fab, V domains shown, also called VH W33D I58E W99Y / VL T30Y (60BJN)) VH: EVQLVQSGAEVKKPGASVKVSCKASGYTFTSYDMHWVRQAPGQGLEWMGRIDPQSGGEKYAQKFQGRATLTVDTSTSTAYMELSRLRSDDTAVYYCARYDYGGYFDVWGQGTLVTVSS VL: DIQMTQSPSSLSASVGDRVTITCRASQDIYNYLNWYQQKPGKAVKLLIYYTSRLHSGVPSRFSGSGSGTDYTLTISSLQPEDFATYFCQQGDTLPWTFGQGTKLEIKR
-2.19

State, in one line, measured log10 of koff of 78BJN (Fab, V domains shown, also called VH W33D K59R / VL T30Y R53N T93E (78BJN)) VH: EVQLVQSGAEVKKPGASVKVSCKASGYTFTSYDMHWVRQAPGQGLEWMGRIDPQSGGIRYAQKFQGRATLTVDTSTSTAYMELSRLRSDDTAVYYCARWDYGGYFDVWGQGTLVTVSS VL: DIQMTQSPSSLSASVGDRVTITCRASQDIYNYLNWYQQKPGKAVKLLIYYTSNLHSGVPSRFSGSGSGTDYTLTISSLQPEDFATYFCQQGDELPWTFGQGTKLEIKR
-3.41

Supply reported log10 of koff belonging to this binder: 58BJN (Fab, V domains shown, also called VH W33D W99Y Y101H / VL T30Y (58BJN)) VH: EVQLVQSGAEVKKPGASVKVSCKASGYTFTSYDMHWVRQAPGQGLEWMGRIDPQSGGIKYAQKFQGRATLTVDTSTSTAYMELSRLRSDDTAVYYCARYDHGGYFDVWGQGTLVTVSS VL: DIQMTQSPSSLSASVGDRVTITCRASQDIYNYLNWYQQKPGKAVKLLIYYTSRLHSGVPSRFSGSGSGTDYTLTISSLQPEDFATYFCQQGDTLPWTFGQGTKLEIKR
-1.82

Return the recorded log10 of koff value; entry: 66BJN (Fab, V domains shown, also called VH W33D S55T Y101H / VL T30Y L94Q (66BJN)) VH: EVQLVQSGAEVKKPGASVKVSCKASGYTFTSYDMHWVRQAPGQGLEWMGRIDPQTGGIKYAQKFQGRATLTVDTSTSTAYMELSRLRSDDTAVYYCARWDHGGYFDVWGQGTLVTVSS VL: DIQMTQSPSSLSASVGDRVTITCRASQDIYNYLNWYQQKPGKAVKLLIYYTSRLHSGVPSRFSGSGSGTDYTLTISSLQPEDFATYFCQQGDTQPWTFGQGTKLEIKR
-1.88

Return log10 of koff for the following binder: 76BJN (Fab, V domains shown, also called VH S31Y W33D Q54Y S55D G57D / VL T30Y R53L T93E (76BJN)) VH: EVQLVQSGAEVKKPGASVKVSCKASGYTFTYYDMHWVRQAPGQGLEWMGRIDPYDGDIKYAQKFQGRATLTVDTSTSTAYMELSRLRSDDTAVYYCARWDYGGYFDVWGQGTLVTVSS VL: DIQMTQSPSSLSASVGDRVTITCRASQDIYNYLNWYQQKPGKAVKLLIYYTSLLHSGVPSRFSGSGSGTDYTLTISSLQPEDFATYFCQQGDELPWTFGQGTKLEIKR
-3.73

# credit: patent US20230272056A1
